measured.on: Ubiquitin carboxyl-terminal hydrolase 2 (Homo sapiens) (UniProt O75604)
Sequence (O75604 whole entry, looked up): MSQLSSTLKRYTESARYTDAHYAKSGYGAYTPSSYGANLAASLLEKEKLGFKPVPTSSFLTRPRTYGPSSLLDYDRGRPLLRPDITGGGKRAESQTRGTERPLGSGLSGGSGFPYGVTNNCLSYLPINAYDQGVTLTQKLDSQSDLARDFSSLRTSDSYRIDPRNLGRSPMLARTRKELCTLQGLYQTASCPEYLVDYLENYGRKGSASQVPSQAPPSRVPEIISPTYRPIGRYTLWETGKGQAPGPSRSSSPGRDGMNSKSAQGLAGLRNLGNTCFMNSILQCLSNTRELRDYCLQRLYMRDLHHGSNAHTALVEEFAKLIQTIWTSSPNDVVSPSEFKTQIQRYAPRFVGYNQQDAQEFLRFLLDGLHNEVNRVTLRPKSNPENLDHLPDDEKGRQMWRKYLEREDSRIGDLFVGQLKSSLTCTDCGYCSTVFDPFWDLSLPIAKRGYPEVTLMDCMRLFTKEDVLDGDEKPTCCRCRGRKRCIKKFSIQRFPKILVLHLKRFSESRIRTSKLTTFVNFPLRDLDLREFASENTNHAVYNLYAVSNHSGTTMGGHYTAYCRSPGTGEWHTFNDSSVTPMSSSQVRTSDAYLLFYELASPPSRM
assay.details: Confirmation Assay for Inhibitors of Ubiquitin-specific Protease USP2a Using CHOP2 as the Reporter; further: nearly all actives have a fitted effect of over 55% in size
condition.info: USP2 core, Ub-CHOP2 coupled reporter fluorescence; series mostly up to 38.3 µM
Description: NIH Molecular Libraries Probe Centers Network [MLPCN] NIH Chemical Genomics Center [NCGC] MLSCN Grant: XO1-MH079852-01 PI Name: Nicholson, Ben. […] Thus, this coupled assay gives a fluorescent read-out at excitation/emission wavelengths of 485/531. […] NCGC Assay Protocol Summary: The assay buffer, prepared fresh at the day of the assay, contains 20mM Tris-HCl pH 8.0, 2mM CaCl2, 2mM beta-Mercaptoethanol, 0.05% CHAPS. […] The time zero reading was used to flag fluorescence artifacts. […]
Records with an inconclusive call do not appear. Active and inactive are the calls of the source. The call rests on the fitted dose curve; in most records, active means well fitted inhibition curve with a large enough effect; inconclusive means small, poorly fitted or top-dose-only effect, or effect the other way; inactive means flat fitted curve, though single readings scatter.
Your reply should match one of these outcome classes. active, inactive

Example cases with answers are listed next.
Q) # outcome recorded in this test, key = COc1cc(/C=C/[N+](=O)[O-])ccc1OCc1cccc(C(=O)O)c1
A) inactive

Q) # outcome recorded in this test, key = COc1cccc(NC(=O)c2ccccc2-c2nc(-c3cccc(C)c3)no2)c1
A) inactive

Q) # outcome recorded in this test, key = O=C(NC12CC3CC(CC(C3)C1)C2)C1=COCCO1
A) inactive

Q) # outcome recorded in this test, key = Oc1c(Cl)cc(Cl)c(Cl)c1Cc1c(O)c(Cl)cc(Cl)c1Cl
A) active

Q) # outcome recorded in this test, key = N#CCC(=O)Nc1ccc(C(=O)OCC(=O)NCc2ccc3c(c2)OCO3)cc1
A) inactive

Q) # outcome recorded in this test, key = O=C(NCCCN1CCCC1=O)c1cccc(N2CCCC2=O)c1
A) inactive

Next:
Q) # outcome recorded in this test, key = COc1cc2c(C(=O)N3CCN(c4cccc(Cl)c4)CC3)cn(CC(C)C)c(=O)c2cc1OC
A) inactive

Q) # outcome recorded in this test, key = COc1ccc(NC(=S)NC(=O)/C=C/c2ccco2)cc1
A) inactive

Q) # outcome recorded in this test, key = Cc1nc(NC(C)C)c2cnn(CCc3ccccc3)c2n1
A) inactive

Q) # outcome recorded in this test, key = COc1ccc(-c2[nH]ncc2/C=C(/C#N)C(=O)NC2CCCCC2)cc1
A) inactive

Q) # outcome recorded in this test, key = O=C1OC[C@@H]2CCCN2C(=O)[C@@H](CC(=O)N(CCO)Cc2ccccc2)C/C=C\C[C@@H]1Cc1ccc(F)cc1
A) inactive

###

measured.on: Ubiquitin carboxyl-terminal hydrolase 2 (Homo sapiens) (UniProt O75604)
assay.details: Confirmation Assay for Inhibitors of Ubiquitin-specific Protease USP2a Using CHOP2 as the Reporter; further: nearly all actives have a fitted effect of over 55% in size
condition.info: USP2 core, Ub-CHOP2 coupled reporter fluorescence; series mostly up to 38.3 µM
Inconclusive results are not listed. Active and inactive are the calls of the source. Calls come from the whole dose curve; as a rule, active = well fitted inhibition curve with a large enough effect; inconclusive = small, poorly fitted or top-dose-only effect, or effect the other way; inactive = flat fitted curve, though single readings scatter.
measured.attribute: outcome

Q) Please list outcome recorded for the molecule Cc1cccn2c(=O)c3cc(C(=O)NCCN4CCOCC4)c(=N)n(CCN4CCOCC4)c3nc12
A) inactive

Q) Please list outcome recorded for the molecule COc1ccc(-c2cc(C(F)(F)F)nc(S(C)(=O)=O)n2)cc1
A) inactive

Q) Please list outcome recorded for the molecule C=CCn1c(O)c(C(CC)=NCCN2CCOCC2)c(=O)[nH]c1=O
A) inactive

###

measured.on: Ubiquitin carboxyl-terminal hydrolase 2 (Homo sapiens) (UniProt O75604)
assay.details: Confirmation Assay for Inhibitors of Ubiquitin-specific Protease USP2a Using CHOP2 as the Reporter; further: nearly all actives have a fitted effect of over 55% in size
condition.info: USP2 core, Ub-CHOP2 coupled reporter fluorescence; series mostly up to 38.3 µM
Inconclusive results are not listed. Activity calls are given as the source filed them. Calls come from the whole dose curve; as a rule, active = well fitted inhibition curve with a large enough effect; inconclusive = small, poorly fitted or top-dose-only effect, or effect the other way; inactive = flat fitted curve, though single readings scatter.
Your reply should match one of these outcome classes. active, inactive

Q) # outcome recorded in this test, key = COc1ccc(Cc2nnc(NC(=O)Cc3cccs3)s2)cc1
A) active

Q) # outcome recorded in this test, key = COC(=O)C1CCN(C(=O)COC(=O)CC(NC(N)=O)c2ccc(Cl)cc2)CC1 (configuration not stated)
A) inactive

Next:
Q) # outcome recorded in this test, key = O=C(O)c1cccc(S(=O)(=O)NNc2ccccc2C(F)(F)F)c1
A) inactive

Q) # outcome recorded in this test, key = Cc1ccc(S(=O)(=O)N2[C@@H](c3ccc(C(C)(C)C)cc3)C(C(=O)O)=CC[C@H]2c2ccc(C(C)C)cc2)cc1
A) active

###

measured.on: Ubiquitin carboxyl-terminal hydrolase 2 (Homo sapiens) (UniProt O75604)
assay.details: Confirmation Assay for Inhibitors of Ubiquitin-specific Protease USP2a Using CHOP2 as the Reporter; further: nearly all actives have a fitted effect of over 55% in size
condition.info: USP2 core, Ub-CHOP2 coupled reporter fluorescence; series mostly up to 38.3 µM
Records with an inconclusive call do not appear. Calls of active or inactive are those of the source. The call rests on the fitted dose curve; in most records, active means well fitted inhibition curve with a large enough effect; inconclusive means small, poorly fitted or top-dose-only effect, or effect the other way; inactive means flat fitted curve, though single readings scatter.
Your reply should match one of these outcome classes. active, inactive

Example cases with answers are listed next.
Q) # outcome recorded in this test, key = C=CCOc1cccc(C2C(C(=O)c3ccco3)=C(O)C(=O)N2CCN(CC)CC)c1 (stereo not drawn)
A) inactive

Q) # outcome recorded in this test, key = CSCC[C@H](NC(=O)C1CCN(S(=O)(=O)c2ccc(C)cc2)CC1)C(=O)NCc1ccco1
A) inactive

Next:
Q) # outcome recorded in this test, key = Oc1ccc(/C=N/NC(=S)N/N=C/c2ccc(O)cc2)cc1
A) inactive

Q) # outcome recorded in this test, key = CCN(C[C@H]1N[C@@](CC)(C(=O)OC)[C@H]2C(=O)N(Cc3ccccc3)C(=O)[C@@H]12)C(=O)Nc1ccc(C)cc1
A) inactive

Q) # outcome recorded in this test, key = CCN=C1SC(C(=O)Nc2cccc(OCC)c2)CC(=O)N1CC (stereo not drawn)
A) inactive

Q) # outcome recorded in this test, key = CCCCc1ccc(/C=C2/C(=O)ON=C2c2ccccc2)s1
A) inactive

Q) # outcome recorded in this test, key = COc1ccc(NC(=O)CN(Cc2ccccc2)S(C)(=O)=O)cc1
A) inactive

Q) # outcome recorded in this test, key = Cn1nnnc1Sc1ncnc2scc(-c3ccc4c(c3)OCO4)c12
A) inactive

Q) # outcome recorded in this test, key = Cc1ccc(S(=O)(=O)Cc2ccc(C(=O)N3CCN(c4ccccn4)CC3)o2)cc1
A) inactive

Q) # outcome recorded in this test, key = Cc1cc2c(c(=O)n1CC1CCCO1)C(c1ccco1)C(C#N)=C(N)O2 (stereo not drawn)
A) inactive

Q) # outcome recorded in this test, key = COc1ccccc1C(=O)N1CCN=C1SC
A) inactive

Q) # outcome recorded in this test, key = CNC(=O)NC(=O)CSc1ccc(NC(C)=O)cc1
A) inactive

Q) # outcome recorded in this test, key = CN(C)c1ccc(-c2ccccc2)nn1
A) inactive

Q) # outcome recorded in this test, key = Cc1ccc(C)c(OCC(=O)Nc2cc(NC(=O)COc3cc(C)ccc3C)cc(C(=O)O)c2)c1
A) inactive

Q) # outcome recorded in this test, key = O=C(NC(=S)N1CCCc2ccccc21)c1ccc([N+](=O)[O-])cc1
A) inactive

###

measured.on: Ubiquitin carboxyl-terminal hydrolase 2 (Homo sapiens)
assay.details: Confirmation Assay for Inhibitors of Ubiquitin-specific Protease USP2a Using CHOP2 as the Reporter; further: nearly all actives have a fitted effect of over 55% in size
condition.info: USP2 core, Ub-CHOP2 coupled reporter fluorescence; series mostly up to 38.3 µM
Results filed as inconclusive are left out. Activity calls are given as the source filed them. The call rests on the fitted dose curve; in most records, active means well fitted inhibition curve with a large enough effect; inconclusive means small, poorly fitted or top-dose-only effect, or effect the other way; inactive means flat fitted curve, though single readings scatter.
Your reply should match one of these outcome classes. y (active), n (inactive)

Example cases with answers are listed next.
Q) # outcome recorded in this test, key = CCCn1c(N2CCN(Cc3cccc(C)c3)CC2)nc2c1c(=O)[nH]c(=O)n2C
A) n

Q) # outcome recorded in this test, key = CCN(CC)S(=O)(=O)c1ccc(Cl)c(NC(=O)COC(=O)c2c(C)noc2C)c1
A) n

Q) # outcome recorded in this test, key = C#CCOCCOCCOCCNc1nc(N2CCN(C(=O)CCCCCCCCCCNC(=O)[C@H](CO)n3cc(CCCSC)nn3)CC2)nc(N2CCN(C(=O)CCCCCCCCCCNC(=O)[C@H](CCCN=C(N)N)n3cc(C[C@@H](C)CC)nn3)CC2)n1
A) y

Q) # outcome recorded in this test, key = O=C(CSc1nc(O)cc(=O)n1-c1ccccc1)NC1CCCCC1
A) n

Q) # outcome recorded in this test, key = Cc1ccc(/C(N)=N/OC(=O)Oc2ccccc2)cc1
A) n

Q) # outcome recorded in this test, key = Cc1nc2cc3ccccc3cc2c(=O)[nH]1
A) n

Q) # outcome recorded in this test, key = Cn1nc(CC(=O)NCc2ccc(F)cc2)c2ccccc2c1=O
A) n

Q) # outcome recorded in this test, key = Cc1cc(N2CCC(C(=O)NC3CC3)CC2)nc(-c2ccccc2)n1
A) n

Q) # outcome recorded in this test, key = CCOc1ccc(Cn2c(=O)sc3ccccc32)cc1OC
A) n

Q) # outcome recorded in this test, key = Cc1ccc(C)c(S(=O)(=O)c2c(N)n(/N=C/c3ccco3)c3nc4ccccc4nc23)c1
A) n

Next:
Q) # outcome recorded in this test, key = O=c1cc(CO)oc(CN2CCN(Cc3ccccc3)CC2)c1O
A) n

Q) # outcome recorded in this test, key = O=C(CNC(=O)C1CCCCC1)NC1=NCCS1
A) n

Q) # outcome recorded in this test, key = CCOc1cc(N2CCOCC2)c(OCC)cc1NC(=O)Cc1cn2ccsc2n1
A) n
